molecular target: T1, human 4-1BB (h4-1BB) on transiently transfected CHO cells (human, UniProt Q07011 24-255); assay: flow cytometry, CHO cells transfected with human 4-1BB, antibody at 10 µg/ml
T1 construct: also called TNFRSF9; CD137
measured.attribute: percentage of cells with FITC signal (%)
Give the number; % is assumed, so skip it.

binder: 61-6A7 (antibody, V domains shown, mouse antibody purified from ascites) VH: EVQLQQSGAELVRPGALVKLSCKASGFNIKDYYMHWVKRRPEQGLEWIGWIDPENGNTIYDPKFQDKASITADTSSNTAYLQLSSLTSEDTAVYYCAEGLPWYFDYWGQGTTLTVSS VL: QIILTQSPALMSASPGEKVTMTCSASSSVSDMNWYQQKPRSSPTPWIYLTSNLSSGVPDRFSGSGSGTSYSLTISSMEAEDAATYYCQQWSGNPLTFGAGTRLELK
value.reported: 63

binder: 30-5F9 (antibody, V domains shown, mouse antibody purified from ascites) VH: QVQLKESGPGLVAPSQSLSITCTVSGFSLTTYDISWVRQPPGKGLEWLGVIWTGGGTNYNSSFMSRLSISKDNSKNQVFLKMNSLQVDDTAIYYCERVDYWGQGTTLTVSS VL: DVVMTQTPLSLPVSLGDQASISCRSSQSLVHSNGNTYLHWYLQKPGQSPKLLIYKVSNRFSGVPDRFSGSGSGTAFTFKISRVEAEDLGVYFCSQNTHVPWTFGGGTKLEIK
value.reported: 68.9

Then this binder:
Prompt: Bench note: what percentage of cells with FITC signal did 45-7G9 (antibody, V domains shown, mouse antibody purified from ascites) VH: QVQLQQPGSALVRPGASVKLSCKASGYTFSNYWIHWVKQRHGQGLEWIGNIYPASDYTNYDEKFKNKGTLTVDTSSSTAYMHLSSLTSEDSAVYYCSRGYFGSLDYWGQGTSVTVSA VL: DILLTQSPAILSVNPGERVSFSCRASQPIGTGIHWYQQRTNGSPRLLIKSASESISGIPSRFSGSGSGTDFTLTINNVESDDVGDYYCQQSYSWPTTFGGGTKLKIN show?
Response: 57.9
